# SYSTEM TESTED: Melanocortin receptor 4 (Homo sapiens)
# ASSAY COMMENT: Binding affinity against Melanocortin 4 receptor by gamma-MCH displacement.
RECORDED METRIC: Ki (nM)

CCCC[C@H](NC(=O)[C@@H](NC(=O)[C@@H](N)Cc1ccc(O)cc1)C(C)C)C(=O)NCC(=O)N[C@@H](Cc1c[nH]cn1)C(=O)N[C@@H](Cc1ccccc1)C(=O)N[C@@H](CCCN=C(N)N)C(=O)N[C@@H](Cc1c[nH]c2ccccc12)C(=O)N[C@@H](CC(=O)O)C(=O)N[C@@H](CCCN=C(N)N)C(=O)N[C@@H](Cc1ccccc1)C(=O)NCC(N)=O	62

* * *

# SYSTEM TESTED: Melanocortin receptor 4 (Homo sapiens, UniProt P32245)
# Sequence (P32245 whole entry): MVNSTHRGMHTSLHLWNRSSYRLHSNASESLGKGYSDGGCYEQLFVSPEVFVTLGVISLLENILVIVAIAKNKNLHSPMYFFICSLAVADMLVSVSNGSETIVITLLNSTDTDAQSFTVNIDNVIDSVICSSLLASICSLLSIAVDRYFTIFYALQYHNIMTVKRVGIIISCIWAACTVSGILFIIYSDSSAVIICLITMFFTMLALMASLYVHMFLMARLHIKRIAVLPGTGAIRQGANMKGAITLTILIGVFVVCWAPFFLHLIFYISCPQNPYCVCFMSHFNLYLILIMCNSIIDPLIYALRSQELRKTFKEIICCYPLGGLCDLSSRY
# ASSAY COMMENT: Intracellular cAMP accumulation in Melanocortin 4 receptor functional assay.
pEC50: −log10 of the molar value.
RECORDED METRIC: pEC50

CCCC[C@H](NC(=O)[C@@H](NC(=O)[C@@H](N)Cc1ccc(O)cc1)C(C)C)C(=O)NCC(=O)N[C@@H](Cc1c[nH]cn1)C(=O)N[C@H](Cc1ccc2ccccc2c1)C(=O)N[C@@H](CCCN=C(N)N)C(=O)N[C@H](Cc1ccc2ccccc2c1)C(=O)N[C@@H](CC(=O)O)C(=O)N[C@@H](CCCN=C(N)N)C(=O)N[C@@H](Cc1ccccc1)C(=O)NCC(N)=O	7.36

* * *

# SYSTEM TESTED: Melanocortin receptor 4 (Homo sapiens)
# ASSAY COMMENT: Intracellular cAMP accumulation in Melanocortin 4 receptor functional assay.
Bridge positions count the residues as written; N and C are the ends. Square brackets hold non-standard residues; d marks the D form. Peptide text beside a SMILES is read from it. Pen = CC(C)(S)[C@H](N)C(=O)O
Catalogue of compounds with associated EC50
RECORDED METRIC: EC50

CC(C)[C@H](NC(=O)[C@@H](N)Cc1ccc(O)cc1)C(=O)N[C@H]1CSSC(C)(C)[C@@H](C(=O)N[C@@H](CCCNC(=N)N)C(=O)N[C@@H](Cc2ccccc2)C(=O)NCC(N)=O)NC(=O)[C@H](Cc2c[nH]c3ccccc23)NC(=O)[C@H](CCCNC(=N)N)NC(=O)[C@H](Cc2ccccc2)NC(=O)[C@H](Cc2cnc[nH]2)NC(=O)CNC1=O (H-YVCGHFRW[Pen]RFG-NH2; disulfide 3-9)	> 10000 nM
CCCC[C@H](NC(=O)[C@@H](NC(=O)[C@@H](N)Cc1ccc(O)cc1)C(C)C)C(=O)N[C@@H]1CSSC[C@@H](C(=O)N[C@@H](CCCNC(=N)N)C(=O)N[C@@H](Cc2ccccc2)C(=O)NCC(N)=O)NC(=O)[C@H](Cc2c[nH]c3ccccc23)NC(=O)[C@H](CCCNC(=N)N)NC(=O)[C@H](Cc2ccccc2)NC(=O)[C@H](Cc2cnc[nH]2)NC1=O	360 nM
CCCC[C@H](NC(=O)[C@@H](NC(=O)[C@@H](N)Cc1ccc(O)cc1)C(C)C)C(=O)N[C@H]1CSSC[C@H](C(=O)N[C@@H](CCCN=C(N)N)C(=O)N[C@@H](Cc2ccccc2)C(=O)NCC(N)=O)NC(=O)[C@H](Cc2c[nH]c3ccccc23)NC(=O)[C@H](CCCN=C(N)N)NC(=O)[C@H](Cc2ccccc2)NC(=O)[C@H](Cc2c[nH]cn2)NC1=O	83 nM
